- System: IGROV1 ovarian
- Assay info: NCI tumour cell line growth inhibition, 48 h; in the data active = GI50 below about 0.43 µM; inactive = the rest
Where a SMILES comes first, the peptide text is derived from it. The star is where a group is joined. Palmitoyl = CCCCCCCCCCCCCCCC(=O)*
Outcome codes: active, inactive

Compound: CC(=O)NCc1cccc(C#Cc2cncnc2Nc2ccc(OCc3cccc(F)c3)c(Cl)c2)c1
Assigned category: inactive

Compound: O=C(/C=C/c1cccc(O)c1)c1cccc(-n2cc(-c3ccccc3)[nH]c2=O)c1
Assigned category: inactive

Compound: O=C(Nc1cccc(-n2cc(-c3ccncc3)c(-c3cc(O)cc(Cl)c3)n2)c1)c1cc(C(F)(F)F)cc(C(F)(F)F)c1
Assigned category: inactive

Compound: CC1OC(OC2C(O)CC(OC3C(O)CC(OC4CCC5(C)C(CCC6C5CC(O)C5(C)C(C7=CC(=O)OC7)CCC65O)C4)OC3C)OC2C)CC(O)C1O (centres undefined)
Assigned category: active

Compound: Nc1nc(Nc2ccccc2SSc2ccccc2Nc2nc(N)nc(C(Cl)(Cl)Cl)n2)nc(C(Cl)(Cl)Cl)n1
Assigned category: inactive

Compound: COc1ccc(/C=C(\C#N)n2nnc3c(F)cccc32)cc1
Assigned category: active

Compound: C(=N/N(Cc1ccccc1)Cc1ccccc1)/c1ccccc1
Assigned category: inactive

Compound: COC(=O)CCCCC(=O)c1c(C)[nH]c(/C=C2\N=C(c3ccc[nH]3)C=C2OC)c1C
Assigned category: inactive

Compound: CCCCCCCCCCCCCCCC(=O)N1CCCC1C(=O)NCC(=O)NC(Cc1ccccc1)C(=O)NC(C)C(=O)NC(CO)C(=O)NC(Cc1ccc(O)cc1)C(=O)NC(CCCCN)C(=O)NC(CC(C)C)C(=O)NC(CCCN=C(N)N)C(=O)N1CCCC1C(=O)NCC(N)=O (centres undefined) (Palmitoyl-PGFASYKLRPG-NH2; configuration not given here)
Assigned category: inactive

###

- Test system: NCI-H522 lung
- Assay info: NCI tumour cell line growth inhibition, 48 h

Compound: COc1ccc(CCC2c3cc(OC)c(OC)cc3CCN2C)cc1OC (stereo not given)
TGI: > 100 µM
//
Compound: C[N+](C)(C)CC1CCCC1=O (stereo not given)
TGI: 0.0171 µM
//
Compound: O=C(CC1(O)C(=O)N(Cc2ccccc2)c2ccccc21)c1ccc(C(=O)NCC2CCC3(CC2)OOC2(CCCCC2)OO3)cc1 (stereo not given)
TGI: 0.73 µM
//
Compound: O=[N+]([O-])c1ccc(OC2CC3C4C=CC3C2C4)c([N+](=O)[O-])c1 (stereo not given)
TGI: > 100 µM
//
Compound: CCC1(O)C(=O)OCc2c1cc1n(c2=O)Cc2cc3c(NC(=O)CN)cccc3nc2-1 (stereo not given)
TGI: 9.9 µM

###

- System: LOX IMVI melanoma
- Assay info: NCI tumour cell line growth inhibition, 48 h
Threshold check on TGI: at or above 3 µM gives rule met, strictly below gives rule not met.

Compound: O=[N+]([O-])c1ccc(C(=S)Nc2ccccc2)o1
Assigned category: rule met
//
Compound: CCCCCCNC(=O)Oc1ccc(/C(=C(\C)c2ccc(Cl)cc2)c2ccc(OCCN3CCCCC3)cc2)cc1
Assigned category: rule met
//
Compound: O=C1Cc2c([nH]c3ccc(Br)cc23)-c2cc(O)c(O)cc2N1
Assigned category: rule met
//
Compound: CCC(=O)C(CCN1CCC2(CCCc3ccccc32)CC1)(c1ccccc1)c1ccccc1
Assigned category: rule not met
//
Compound: COC1C(O)C(CO)OC(OC2C(O)COC(OC3C(C)OC(OC4C(O[C@H]5CC[C@@]6(C)C(CC=C7[C@H]6CCC68C(=O)O[C@@](C)(CCCC(C)C)[C@H]6[C@@H](OC(C)=O)C[C@@]78C)C5(C)C)OCC(OS(=O)(=O)O)C4O)C(OC4OCC(O)C(O)C4O)C3O)C2O)C1O (stereo partly drawn)
Assigned category: rule not met
//
Compound: CC1(c2ccccc2Cl)C(C#N)C(=O)NC(=O)C1C#N (stereo not drawn)
Assigned category: rule met

###

- System: RXF 393 renal
- Assay info: NCI tumour cell line growth inhibition, 48 h
Each record here notes measured TGI.

Molecule: O=C(O)CCC(=O)c1ccc2sc3ccccc3c2c1
TGI: > 100 µM
--
Molecule: C[C@]12C[C@@H](OC(=O)[C@]1(C)O)[C@@H]([C@]1(O)CC[C@H]3[C@@H]4C[C@H]5O[C@]56C[C@H]5O[C@H]5C(=O)[C@]6(C)[C@H]4CC[C@@]31C)C2
TGI: > 50 µM
--
Molecule: CC(N)Cc1ccc(Cl)c(Cl)c1 (stereo unspecified)
TGI: 77.2 µM
--
Molecule: Cc1nc2ccc(C(F)(F)F)cc2nc1NCc1ccc(Cl)c(Cl)c1
TGI: 26.5 µM
--
Molecule: CC12CCC(=O)N1c1ccc([N+](=O)[O-])cc1N2 (stereo unspecified)
TGI: > 100 µM
--
Molecule: O=C1c2sccc2-c2cccc3cccc1c23 (tested in a mixture with another compound)
TGI: > 100 µM
--
Molecule: O=C(c1ccccc1)N(C(=O)c1ccccc1)c1nc(SCc2ccccc2)ns1
TGI: > 100 µM
--
Molecule: O=C1Cc2c([nH]c3ccc(Br)cc23)-c2cc(O)c(O)cc2N1
TGI: > 100 µM
--
Molecule: Nc1nc(Nc2ccccc2SSc2ccccc2Nc2nc(N)nc(C(Cl)(Cl)Cl)n2)nc(C(Cl)(Cl)Cl)n1
TGI: 10.3 µM
--
Molecule: Cc1ccccc1NC(=O)C(=O)C(C#N)c1ccccc1C (stereo unspecified)
TGI: > 100 µM
--
Molecule: c1ccc2oc(-c3ccc(-c4nc5ccccc5o4)c4c3CC4)nc2c1
TGI: > 100 µM
--
Molecule: CC1(C)CC(=O)C2=C(C1)OC(N)=C(c1nc(-c3ccccc3)cs1)C2c1ccc(Br)cc1 (stereo unspecified)
TGI: 126 µg/mL
--
Molecule: COc1ccc(N2C(=O)/C(=C\c3cc(OC)c(OC)c(OC)c3)SC2c2ccccc2)cc1 (stereo unspecified)
TGI: > 100 µM
--
Molecule: CC1=NN(c2nc(N)nc(/C(C#N)=C\c3csc([N+](=O)[O-])c3)n2)C(C)(C)C1
TGI: 44.7 µM
--
Molecule: NC(=O)C(=CNC(=S)Nc1ccccc1)C(N)=O
TGI: > 100 µM
--
Molecule: N#CCCN1C/C(=C/c2ccc(Cl)cc2)C(=O)/C(=C/c2ccc(Cl)cc2)C1
TGI: 2.61 µM
--
Molecule: Clc1cc(Cl)cc(N=C/C=C/Nc2cc(Cl)cc(Cl)c2)c1
TGI: 36.8 µM
--
Molecule: N#CC(C#N)c1ccc(C(=O)N2CCC[C@H]2CO)cc1
TGI: > 100 µM
--
Molecule: Oc1[nH]c2ccccc2c1N=NC(=S)Nc1ccccc1Cl
TGI: 31.4 µM
--
Molecule: O=C1Nc2ccccc2N=CC1NC(=O)C(c1ccccc1)c1ccccc1 (stereo unspecified)
TGI: > 100 µM
--
Molecule: O=CNCNCCO
TGI: > 100 µM

###

- Tested on: HT29 colon
- Assay info: NCI tumour cell line growth inhibition, 48 h
Each record here notes measured TGI.
Observable: TGI (µM)

Molecule: CCC(=O)C(CCN1CCC2(CCCc3ccccc32)CC1)(c1ccccc1)c1ccccc1
Observable: TGI
Bound sign: =
Value measured: 6.01
//
Molecule: COC1C(O)C(CO)OC(OC2C(O)COC(OC3C(C)OC(OC4C(O[C@H]5CC[C@@]6(C)C(CC=C7[C@H]6CCC68C(=O)O[C@@](C)(CCCC(C)C)[C@H]6[C@@H](OC(C)=O)C[C@@]78C)C5(C)C)OCC(OS(=O)(=O)O)C4O)C(OC4OCC(O)C(O)C4O)C3O)C2O)C1O (stereo partly specified)
Observable: TGI
Bound sign: =
Value measured: 0.221
//
Molecule: CC1OC(OC2C(O)CC(OC3C(O)CC(OC4CCC5(C)C(CCC6C5CC(O)C5(C)C(C7=CC(=O)OC7)CCC65O)C4)OC3C)OC2C)CC(O)C1O (stereo unspecified)
Observable: TGI
Bound sign: =
Value measured: 0.154
//
Molecule: Oc1[nH]c2ccccc2c1N=NC(=S)Nc1ccccc1Cl
Observable: TGI
Bound sign: =
Value measured: 21.9
//
Molecule: O=C1C(Cl)C2(CC(/C=C/c3ccccc3)=NN2c2cccc(S(=O)(=O)O)c2)N1c1nc2ccccc2s1 (stereo unspecified)
Observable: TGI
Bound sign: =
Value measured: 37.2
//
Molecule: O=c1[nH]c(=S)nc2nc3c4ccc[nH]c4c4ccccc4c3nc12
Observable: TGI
Bound sign: >
Value measured: 100
//
Molecule: CC(=O)OCC(=O)O[C@@H]1[C@H]2[C@@H](OC(=O)c3ccccc3)[C@@H](C)C[C@]2(O)[C@H](OC(C)=O)[C@@]2(C)C(OC(C)=O)[C@]1(OC(C)=O)C[C@H]1C(=O)C(C)(C)C[C@@H]12 (stereo partly specified)
Observable: TGI
Bound sign: >
Value measured: 50
//
Molecule: N#Cc1ccc(C=NC23CC4CC(CC(C4)C2)C3)cc1
Observable: TGI
Bound sign: >
Value measured: 100
//
Molecule: CCCCCCCC1(N=[N+]=[N-])C(=O)Nc2ccccc2C1=O (stereo unspecified)
Observable: TGI
Bound sign: =
Value measured: 56.8
//
Molecule: NC(=O)C(=CNC(=S)Nc1ccccc1)C(N)=O
Observable: TGI
Bound sign: >
Value measured: 100
//
Molecule: Nc1nc(O)c2ncn([C@H]3CC[C@@H](CO)O3)c2n1
Observable: TGI
Bound sign: >
Value measured: 100
//
Molecule: C#CCNC(=O)[C@H](CC)[C@H]1CC[C@H](C)[C@H]([C@@H](C)[C@H](O)[C@H](C)C(=O)[C@H](CC)C2O[C@]3(C=CC(=O)[C@]4(CC[C@@](C)([C@H]5CC[C@](O)(CC)[C@H](C)O5)O4)O3)[C@H](C)C[C@@H]2C)O1 (stereo partly specified)
Observable: TGI
Bound sign: =
Value measured: 5.46
//
Molecule: C/C(=C\CBr)CCC(Br)C(C)(C)Cl (stereo unspecified)
Observable: TGI
Bound sign: >
Value measured: 100
//
Molecule: C=C(C)C1Cc2c(c3ccccc3n(C)c2=O)O1 (stereo unspecified)
Observable: TGI
Bound sign: >
Value measured: 100
//
Molecule: Nc1[nH]c(=O)nc2c1cnn2C1CCCCO1 (stereo unspecified)
Observable: TGI
Bound sign: >
Value measured: 100
//
Molecule: C[C@]12CC[C@@H]3c4cc(OC(F)F)c(OS(N)(=O)=O)cc4CC[C@H]3[C@@H]1CC[C@@H]2O
Observable: TGI
Bound sign: =
Value measured: 13.9
